Reference source for all entries: PubChem BioAssay (NCATS)

- method.description: Cell Viability - H-4-II-E (AID 543);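 also: cells exposed to compound for 40 hours; nearly all actives have a fitted effect of over 35% in size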
- assay.conditions: H-4-II-E rat hepatoma viability; series mostly up to 92.2 µM
Records with an inconclusive call do not appear. The source made the active and inactive calls. Calls follow the shape of the dose curve; as a rule, active = well fitted cell-killing curve with a large enough effect; inconclusive = small, poorly fitted or top-dose-only effect; inactive = flat fitted curve, though single readings scatter.
Write down one outcome, taken from 1.0 = active, 0.0 = inactive

Worked examples, 10 molecules total:
Query: For this molecule, state the assay outcome: O=C(O)C(Cl)Cl
Result: 0.0

Query: Please answer likewise for CCCCCCCCc1ccc(O)cc1
Result: 0.0

Query: Please answer likewise for Cc1cc(O)ccc1Cl
Result: 0.0

Query: Please answer likewise for O=S(=O)(c1ccc(Cl)cc1)c1ccc(Cl)cc1
Result: 0.0

Query: Please answer likewise for CCCCOC(=O)c1ccccc1C(=O)OCc1ccccc1
Result: 0.0

Query: Please answer likewise for CCCCC(CC)COC(=O)c1ccccc1C(=O)OCC(CC)CCCC (stereo unspecified)
Result: 0.0

Query: Please answer likewise for O=[N+]([O-])c1c2ccccc2cc2ccccc12
Result: 0.0

Query: Please answer likewise for c1cc2ccc3cccc4ccc(c1)c2c34
Result: 0.0

Query: Please answer likewise for O=[N+]([O-])c1c(Cl)c(Cl)cc(Cl)c1Cl
Result: 0.0

Query: Please answer likewise for O=C(O)COc1ccccc1
Result: 0.0

Others:
Query: For this molecule, state the assay outcome: CC(=O)[O][Hg][c]1ccccc1
Result: 1.0

Query: Please answer likewise for CCOP(=O)(NC(C)C)Oc1ccc(SC)c(C)c1 (stereo unspecified)
Result: 0.0

Query: Please answer likewise for Nc1ccc(Cl)cc1N
Result: 0.0

Query: Please answer likewise for OCCCBr
Result: 0.0

Query: Please answer likewise for C=CC(=O)NCNC(=O)C=C
Result: 0.0

Query: Please answer likewise for COC(C)(C)CCCC(C)C/C=C/C(C)=C/C(=O)OC(C)C (stereo unspecified)
Result: 0.0

###

- System: ATS95
- method.description: qHTS profiling for inhibitors of Plasmodium falciparum proliferation (AID 504749);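 also: 0% = DMSO vehicle and full inhibition = artemisinin control; nearly all actives have a fitted effect of over 60% in size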
- assay.conditions: P. falciparum in erythrocytes, SYBR Green DNA, 72 h; series mostly up to 28.7 µM
Results filed as inconclusive are left out. Active and inactive are the calls of the source. Calls come from the whole dose curve; as a rule, active = well fitted inhibition curve with a large enough effect; inconclusive = small, poorly fitted or top-dose-only effect; inactive = flat fitted curve, though single readings scatter.
metric: Potency

Worked examples follow.
Query: Reported Potency for Cc1cc(O)ccc1Cl : what is it?
Result: inactive

Query: Please answer likewise for C=CCN1CC[C@]23CCCCC2[C@H]1Cc1ccc(O)cc13 (some centres not stated)
Result: inactive

Query: Please answer likewise for CN1C2CCC1CC(OC(=O)c1cc(Cl)cc(Cl)c1)C2 (configuration not stated)
Result: inactive

Query: Please answer likewise for O=C(O)COc1ccccc1
Result: inactive

Query: Please answer likewise for O=C(O)C(Cl)Cl
Result: inactive

Query: Please answer likewise for COC(C)(C)CCCC(C)C/C=C/C(C)=C/C(=O)OC(C)C (configuration not stated)
Result: inactive

Others:
Query: Reported Potency for C#CC1(O)CCC2C3CCC4=CC(=O)CCC4(C)C3CCC21C (configuration not stated) : what is it?
Result: inactive

Query: Please answer likewise for COC(=O)[C@@H](N)CCCN=C(N)N[N+](=O)[O-]
Result: inactive

Query: Please answer likewise for NC(=O)CN1CC(O)CC1=O (configuration not stated)
Result: inactive

###

- tgt: Nucleoprotein (Lymphocytic choriomeningitis virus (strain Armstrong)) (UniProt P09992)
- Sequence (P09992 whole entry, looked up): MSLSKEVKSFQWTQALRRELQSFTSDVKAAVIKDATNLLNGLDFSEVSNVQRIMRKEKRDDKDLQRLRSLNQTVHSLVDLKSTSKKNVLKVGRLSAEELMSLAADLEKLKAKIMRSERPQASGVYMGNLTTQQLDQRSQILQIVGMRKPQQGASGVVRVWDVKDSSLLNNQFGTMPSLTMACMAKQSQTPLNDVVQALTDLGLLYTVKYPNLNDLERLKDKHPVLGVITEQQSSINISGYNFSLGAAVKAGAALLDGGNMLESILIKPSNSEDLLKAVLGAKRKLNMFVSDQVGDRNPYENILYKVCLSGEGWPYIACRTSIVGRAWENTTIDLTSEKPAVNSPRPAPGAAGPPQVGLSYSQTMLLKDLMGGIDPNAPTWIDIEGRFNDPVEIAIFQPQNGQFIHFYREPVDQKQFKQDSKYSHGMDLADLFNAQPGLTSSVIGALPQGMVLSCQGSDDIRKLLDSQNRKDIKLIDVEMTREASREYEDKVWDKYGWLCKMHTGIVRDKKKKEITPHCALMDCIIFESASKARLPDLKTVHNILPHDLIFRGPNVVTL
- method.description: qHTS for Inhibitors of the Functional Ribonucleoprotein Complex (vRNP) of Lymphocytic Choriomeningitis Arenaviruses (LCMV): LCMV Primary Screen - GLuc reporter signal (AID 1347086); also: nearly all actives have a fitted effect of over 70% in size
- assay.conditions: LCMV minigenome vRNP cell assay, Gaussia luciferase reporter; series mostly up to 57.5 µM
Records with an inconclusive call do not appear. Activity calls are given as the source filed them. Calls come from the whole dose curve.
Write down one outcome, taken from label 1 = active, label 0 = inactive

Worked examples, 5 compounds total:
Query: For this compound, state the assay outcome: CCOC(=O)c1cccnc1
Result: label 0

Query: Please answer likewise for COc1cccc2cc(-c3nc(C4CCC(C(=O)O)CC4)n4ncnc(N)c34)[nH]c12 (configuration not stated)
Result: label 1

Query: Please answer likewise for O=C(Nc1cccc(C2=NCCN2)c1)Nc1cccc(C2=NCCN2)c1
Result: label 0

Query: Please answer likewise for Clc1ccccc1CN1CCc2sccc2C1
Result: label 0

Query: Please answer likewise for Cc1ccc(S(=O)(=O)Nc2cc(Cl)ccc2C(=O)Nc2nc(-c3ccccc3)cs2)cc1
Result: label 0

Others:
Query: For this compound, state the assay outcome: Cc1cc(O)ccc1Cl
Result: label 0

Query: Please answer likewise for O=C(O)c1ccc2c(c1)nc(Nc1cccc(Cl)c1)c1ccncc12
Result: label 0
